# MEASUREMENT_TARGET: human mature TGFβ2 (PeproTech) (Homo sapiens, UniProt P61812)
# Sequence (P61812 303-414): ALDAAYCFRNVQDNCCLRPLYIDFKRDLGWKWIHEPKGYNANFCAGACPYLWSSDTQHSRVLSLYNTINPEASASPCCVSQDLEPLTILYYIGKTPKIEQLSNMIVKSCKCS
# PROCEDURE_SUMMARY: cell-based or functional assay
MEASURED_METRIC: TGFβ inhibition by HEK-Blue cells (IC50: nM), TGFb2; Blocking: Complete
Answers without a unit are incomplete; give the number and then its unit.

Consider the following illustrative entries.
Using the record for h4A11.v2.4 (antibody, V domains shown, as the VH of m7 (h4A11.v2) with the stated changes; numbers count on: Kabat numbering of the heavy chain; as the VL of m7 (h4A11.v2); human IgG1; also called v2.4_ R19S, Y79S; source: Expi293F, transient, purified (Protein A, SEC)) VH: EQQLVESGGGLVQPGGSLSLSCAVSGFSLSSYTVNWVRQAPGKGLEWIGYISYGGSAYYASWANGRFTISKDSAKNSVSLQMNSLRAEDTAVYFCARHMQVGGAPTGSMAAFDPWGPGTLVTVSS VL: DAQLTQSPSSLSASVGDRVTITCQSSQSVYNNNYLSWFQQKPGKPPKLLIYGASTLTSGVPSRFSGSGSGTDFTLTISSLQPEDFATYYCAGGYSGSSDKYAFGGGTKVEIK , report its TGFβ inhibition by HEK-Blue cells (IC50: nM), TGFb2; Blocking: Complete.
2.2 nM

Param item: h4A11.v2.2 (antibody, V domains shown, as the VH of m7 (h4A11.v2) with the stated change; numbers count on: Kabat numbering of the heavy chain; as the VL of m7 (h4A11.v2); human IgG1; also called v2.2_Q81N; source: Expi293F, transient, purified (Protein A, SEC)) VH: EQQLVESGGGLVQPGGSLRLSCAVSGFSLSSYTVNWVRQAPGKGLEWIGYISYGGSAYYASWANGRFTISKDSAKNSVYLNMNSLRAEDTAVYFCARHMQVGGAPTGSMAAFDPWGPGTLVTVSS VL: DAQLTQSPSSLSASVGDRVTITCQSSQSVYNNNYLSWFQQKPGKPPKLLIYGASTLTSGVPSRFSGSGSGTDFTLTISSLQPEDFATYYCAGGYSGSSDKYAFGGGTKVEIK
2.2 nM

Another binder: h4A11.v2.6 (antibody, V domains shown, as the VH of m7 (h4A11.v2) with the stated changes; numbers count on: Kabat numbering of the heavy chain; as the VL of m7 (h4A11.v2); human IgG1; also called v2.6_ R19S, Y79S, Q81S; source: Expi293F, transient, purified (Protein A, SEC)) VH: EQQLVESGGGLVQPGGSLSLSCAVSGFSLSSYTVNWVRQAPGKGLEWIGYISYGGSAYYASWANGRFTISKDSAKNSVSLSMNSLRAEDTAVYFCARHMQVGGAPTGSMAAFDPWGPGTLVTVSS VL: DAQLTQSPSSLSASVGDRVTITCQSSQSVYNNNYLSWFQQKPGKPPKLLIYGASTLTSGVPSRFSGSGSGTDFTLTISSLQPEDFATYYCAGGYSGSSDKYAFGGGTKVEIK
1.7 nM

Further cases:
Consider the binder h4A11.v2.3 (antibody, V domains shown, as the VH of m7 (h4A11.v2) with the stated change; numbers count on: Kabat numbering of the heavy chain; as the VL of m7 (h4A11.v2); human IgG1; also called v2.3_Q81A; source: Expi293F, transient, purified (Protein A, SEC)) VH: EQQLVESGGGLVQPGGSLRLSCAVSGFSLSSYTVNWVRQAPGKGLEWIGYISYGGSAYYASWANGRFTISKDSAKNSVYLAMNSLRAEDTAVYFCARHMQVGGAPTGSMAAFDPWGPGTLVTVSS VL: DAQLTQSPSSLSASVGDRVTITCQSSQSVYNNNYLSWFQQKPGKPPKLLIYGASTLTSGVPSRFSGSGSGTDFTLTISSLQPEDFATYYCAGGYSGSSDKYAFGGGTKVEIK and give its measured TGFβ inhibition by HEK-Blue cells (IC50: nM), TGFb2; Blocking: Complete.
1.7 nM
